src = the supplement of paper PMC9112550

- Test system: Escherichia coli TOP10;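 also: peptides expressed intracellularly from a pBAD plasmid library in pooled LB shake-flask culture, induced with 0.3% L-arabinose, DNA abundance read by NGS, three biological replicates, DESeq2 with apeglm shrinkage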
- EXPERIMENTAL_DETAILS: shrunken log2 fold change of peptide-encoding DNA abundance (4.5 h post-induction vs induction); higher = less antimicrobial activity (less host growth inhibition)
- MEASUREMENT_PARAMETERS: time post-induction: 4.5 h; library: site-saturation at positions 5, 18, 19, 20
Each item that follows carries a reported shrunken log2 fold change.

RRIRLRPPRLPRPRPRPCVFPRP | -0.13
RRIRLRPPRLPRPRPRPKTSPRP | 0.0111
RRIRRRPPRLPRPRPRPAAAPRP | 0.941
RRIRRRPPRLPRPRPRPSNIPRP | -0.528
RRIRGRPPRLPRPRPRPSIKPRP | 0.47

The sequence listed as RRIRERPPRLPRPRPRPKNTPRP shows shrunken log2 fold change equal to -0.439

// RRIRPRPPRLPRPRPRPGDPPRP : shrunken log2 fold change value = 0.364

Entry RRIRWRPPRLPRPRPRPACAPRP ; shrunken log2 fold change = 0.766
